# Species on record: Rattus norvegicus
# experiment.description: Open TG-GATES - Regimen: Daily Repeat
# Assay type: toxicity, organism-based, Sprague-Dawley
# Design: regimen Daily Repeat, gender Male, age 6 weeks
# experimental.context: in vivo, po, 100 mg/kg, 72 h, tissue Plasma, route gavage, dose level Low, time 3 day
For each record, write down the corresponding IP.
# unit: mg/dL | format: bare number

Request: Endpoint output: IP of CNC(=C[N+](=O)[O-])NCCSCc1ccc(CN(C)C)o1 [RANITIDINE] . Value?
Result: 7.4

Request: Same for COC(=O)C1=C(C)NC(C)=C(C(=O)OC)C1c1ccccc1[N+](=O)[O-] [NIFEDIPINE]
Result: 6.8

Request: Same read-out for O=C(OC[C@H]1O[C@@H](OC(=O)c2cc(O)c(O)c(OC(=O)c3cc(O)c(O)c(O)c3)c2)[C@H](OC(=O)c2cc(O)c(O)c(OC(=O)c3cc(O)c(O)c(O)c3)c2)[C@@H](OC(=O)c2cc(O)c(O)c(OC(=O)c3cc(O)c(O)c(O)c3)c2)[C@@H]1OC(=O)c1cc(O)c(O)c(OC(=O)c2cc(O)c(O)c(O)c2)c1)c1cc(O)c(O)c(OC(=O)c2cc(O)c(O)c(O)c2)c1 [TANNIC ACID] ?
Result: 8.6

Request: Then this compound: CN/C(=N/CCSCc1nc[nH]c1C)NC#N [CIMETIDINE]
Result: 7.1

Request: Next up: Cc1nnc2n1-c1ccc(Cl)cc1C(c1ccccc1Cl)=NC2 [TRIAZOLAM]
Result: 8.1

Request: // repeat for CCOc1ccc(NC(C)=O)cc1 [PHENACETIN] and report
Result: 6.8

----------
# Species on record: Rattus norvegicus
# experiment.description: Open TG-GATES - Regimen: Daily Repeat
# Assay type: toxicity, organism-based, Sprague-Dawley
# Design: regimen Daily Repeat, gender Male, age 6 weeks
# experimental.context: in vivo, po, 0 mg/kg, […], tissue Blood, route gavage, dose level Control, time 7 day
endpoint: PT (s)
The answer is to be given in s; state only the numeric part.

Request: Entry CN/C(=N/CCSCc1nc[nH]c1C)NC#N : reported PT = ?
Result: 12.1

Request: Let us now turn to Nc1c2c(nc3ccccc13)CCCC2
Result: 16.3

Request: Same lookup for CN(C)CCC(c1ccc(Cl)cc1)c1ccccn1 (stereo not drawn) , please.
Result: 13.9

Request: Do the same for Cc1nnc2n1-c1ccc(Cl)cc1C(c1ccccc1Cl)=NC2 please
Result: 12.8

Request: Field entry: Brc1ccccc1
Result: 12.3

Request: Can you handle CCCc1cc(=O)[nH]c(=S)[nH]1 next?
Result: 12

Request: Param item: CN1C(=O)CCS(=O)(=O)C1c1ccc(Cl)cc1 (stereo not drawn)
Result: 11.9

Request: # repeat for CNC(=C[N+](=O)[O-])NCCSCc1ccc(CN(C)C)o1
Result: 12.1

Request: Can you handle O=C(OC[C@H]1O[C@@H](OC(=O)c2cc(O)c(O)c(OC(=O)c3cc(O)c(O)c(O)c3)c2)[C@H](OC(=O)c2cc(O)c(O)c(OC(=O)c3cc(O)c(O)c(O)c3)c2)[C@@H](OC(=O)c2cc(O)c(O)c(OC(=O)c3cc(O)c(O)c(O)c3)c2)[C@@H]1OC(=O)c1cc(O)c(O)c(OC(=O)c2cc(O)c(O)c(O)c2)c1)c1cc(O)c(O)c(OC(=O)c2cc(O)c(O)c(O)c2)c1 next?
Result: 11.1

Request: Let us now turn to COC(=O)C1=C(C)NC(C)=C(C(=O)OC)C1c1ccccc1[N+](=O)[O-]
Result: 14.2

Request: Another: CC(C)NNC(=O)c1ccncc1
Result: 15.4

Request: Same question, NC1=NC(=O)C(c2ccccc2)O1 (stereo not drawn) this time
Result: 12.9

Request: What about CCOc1ccc(NC(C)=O)cc1 ?
Result: 13.5
